# methodNotes: Ascites case: plasma and ascites pharmacokinetics
# Type: in vivo, human
# condition: male, human, ascites, oral
propertyMeasured: half-life (h)
Output spec: scalar in h, unitless text.

For the molecule shown here, C[C@]1(c2nc3c(C(N)=O)cccc3[nH]2)CCCN1 [veliparib] , give the reported half-life.
2.6

====

# methodNotes: Gemcitabine
# Type: in vivo, human
# condition: human, plasma, intravenous, dFdC AUC0-inf, gemcitabine 500 mg/m^2 (N=5), veliparib 10 mg; mean (standard deviation)
propertyMeasured: AUC(0-inf) (ng·h/mL)
Output spec: scalar in ng·h/mL, unitless text.

For the molecule shown here, `Nc1ccn([C@@H]2O[C@H](CO)[C@@H](O)C2(F)F)c(=O)n1` , give the reported AUC(0-inf).
5680

Data provenance is paper PMC5734661.
